# System: human umbilical venous endothelial cells
# PROTOCOL: Inhibition of proliferation of human umbilical venous endothelial cells (MTT)
# Format: cell-based
# RECORDED CONDITIONS: Endothelial cell, 72 h, rFGF 2 ng/ml, 3 days of incubation, OD₅₉₀, read-out: IC₅₀
Please provide measured IC50 for the entries that follow.

# compound CC1=C(C(CCCCCC(=O)NO)c2ccc(F)cc2)C(=O)c2ccccc2C1=O (stereo not drawn) ; its IC50 = < 0.63 µg/mL

# compound CC1=C(C(CCCCCCC(=O)NO)c2ccccc2)C(=O)c2ccccc2C1=O (stereo not drawn) ; its IC50 = < 0.63 µg/mL

# compound CC1=C(C(CCCCC(=O)NO)c2cccs2)C(=O)c2ccccc2C1=O (stereo not drawn) ; its IC50 = < 0.08 µg/mL
